Listing: EC50 of selected molecules
Test system: Haemonchus contortus
measurement_notes: In vitro anthelmintic activity against Haemonchus contortus after 24 hr of incubation using larval mobility assay
Format: functional, organism-based
Response body: numeric value in µM, unit text excluded.

Below: 6 molecules and their reported EC50.
>  <molecule>
CCSc1nc(-c2ccccc2)cs1

>  <endpoint_result>
32

$$$$
>  <molecule>
CCSc1cc(-c2cccc(C#N)c2)cs1

>  <endpoint_result>
189

$$$$
>  <molecule>
c1ccc([C@H]2CN3CCSC3=N2)cc1 [LEVAMISOLE]

>  <endpoint_result>
15

$$$$
>  <molecule>
CSc1nc(-c2ccccc2)cs1

>  <endpoint_result>
190

$$$$
>  <molecule>
CCSc1scc(-c2ccc(F)cc2)c1C#N

>  <endpoint_result>
6

$$$$
>  <molecule>
CCSc1cc(-c2ccc(F)c(F)c2)cs1

>  <endpoint_result>
80

$$$$

Input line: State the recorded EC50 for this entry: CCSc1cc(-c2ccc([N+](=O)[O-])cc2)cs1
Output line: 15

Input line: State the recorded EC50 for this entry: CCSc1cc(-c2cccnc2)cs1
Output line: 33

Input line: State the recorded EC50 for this entry: CNc1nc(-c2ccccc2)cs1
Output line: 65

====

Test system: Haemonchus contortus
measurement_notes: In vitro anthelmintic activity against Haemonchus contortus after 24 hr of incubation using larval mobility assay
Assay type: functional, organism-based
Listing: pEC50 of selected compounds
API: returns pEC50 as number; meaning -log10 of concentration in mol/L.

Below: 5 compounds and their reported pEC50.
>  <structure_string>
CSc1scc(-c2ccc(F)cc2)c1Br

>  <readout_kind>
pEC50

>  <endpoint_result>
4.77

$$$$
>  <structure_string>
CCSc1cc(-c2cccs2)cs1

>  <readout_kind>
pEC50

>  <endpoint_result>
3.79

$$$$
>  <structure_string>
CCNc1nc(-c2ccccc2)cs1

>  <readout_kind>
pEC50

>  <endpoint_result>
3.99

$$$$
>  <structure_string>
CNc1nc(-c2ccc(F)cc2)cs1

>  <readout_kind>
pEC50

>  <endpoint_result>
4.19

$$$$
>  <structure_string>
CSc1c(C#N)c(-c2ccc(F)cc2)cn1C

>  <readout_kind>
pEC50

>  <endpoint_result>
3.76

$$$$

Input line: State the recorded pEC50 for this entry: CSc1scc(-c2ccc(F)cc2)c1C#N
Output line: 4.55

Input line: State the recorded pEC50 for this entry: CSc1cc(-c2ccc(F)cc2)cs1
Output line: 4.17

Input line: State the recorded pEC50 for this entry: CCSc1cc(-c2ccc(F)cc2)cs1
Output line: 4.92
